The measurements presented in this section are drawn from patent US20240197596A1.

- Protocol summary: Hair nuance test
- Condition context: Type C (Oxidative with coupler resorcinol)
What ΔH (difference in colour tone) was measured for each of the following?
Numbers only.

N#CCOc1cc(N)ccc1N [Compound N6, 2-(2,5-diaminophenoxy)acetonitrile]; 5.8
COCCOCCOc1cc(N)ccc1N [Compound N5]; 7.7
Nc1ccc(N)c(OCC2CO2)c1 (stereo not drawn) [Compound N4]; 14.0

Hi, could you look up ΔH (difference in colour tone) for each item in my list?
1. C=C(C)Oc1cc(N)ccc1N [Compound N12, 2-(prop-1-en-2-yloxy)benzene-1,4-diamine]
2. CC(O)COc1cc(N)ccc1N (stereo not drawn) [Compound N10, 1-(2,5-diaminophenoxy)propan-2-ol]
3. CCC(=O)COc1cc(N)ccc1N [Compound N11, 1-(2,5-diaminophenoxy)butan-2-one]
4. COCCOc1cc(N)ccc1N [Compound N7, 2-(2-methoxyethoxy)benzene-1,4-diamine]
5. CCOCOc1cc(N)ccc1N [Compound N3, 2-(ethoxymethoxy)benzene-1,4-diamine]
6. Nc1ccc(N)c(OCCO)c1 [Compound N9, 2-(2,5-diaminophenoxy)ethan-1-ol]

Completion:
1. 2.11
2. 5.69
3. 6.14
4. 5.0
5. 1.4
6. 5.73

* * *

- Protocol summary: Hair nuance test
- Parameters: key: CIELAB L*, a*, b* coordinates
- Condition context: Type C (Oxidative with coupler resorcinol)
What a* was measured for each of the following?

Worked examples, 4 compounds total:
C=C(C)Oc1cc(N)ccc1N; 0
N#CCOc1cc(N)ccc1N; 5
COCCOCCOc1cc(N)ccc1N; 0
Nc1ccc(N)c(OCC2CO2)c1 (stereo not drawn); 1

Hi, could you look up a* for each item in my list?
1. Nc1ccc(N)c(OCOCO)c1
2. COCCOc1cc(N)ccc1N
3. CCOCOc1cc(N)ccc1N [Compound N3, 2-(ethoxymethoxy)benzene-1,4-diamine]
4. COCOc1cc(N)ccc1N
5. CC(O)COc1cc(N)ccc1N (stereo not drawn)

Completion:
[0, "−0.7", "−1", 17, 18]

* * *

What Cumulative amount comparison of PPD vs derivatives (times less than PPD) was measured for each of the following?
- Protocol summary: Skin permeation study, Franz diffusion cell
- Assay type: in vitro ADME, porcine
- Condition context: 8 h
One number for each entry.

Worked examples, 6 compounds total:
COCOc1cc(N)ccc1N; 453.7
Nc1ccc(N)c(OCOCO)c1; 640
CC(O)COc1cc(N)ccc1N (stereo not shown); 633
Nc1ccc(N)c(OCCO)c1; 445
COCCOc1cc(N)ccc1N; 675.0
COCCOCCOc1cc(N)ccc1N; 825.0

We now examine a further compound.
Prompt: Respond only with Cumulative amount comparison of PPD vs derivatives (times less than PPD) recorded for "CCC(=O)COc1cc(N)ccc1N"
Completion: 680

* * *

What solubility at 24 h was measured for each of the following?
- Protocol summary: Thermodynamic solubility assay (modified shake flask, LC-MS/MS)
- Condition context: Milli-Q water, 25 °C, pH 7, water, thermodynamic from solid, Solubility, pH=7, 25° C., 24 h; 3 separate determinations

CCC(=O)COc1cc(N)ccc1N [Compound N11, 1-(2,5-diaminophenoxy)butan-2-one]; 45 mg/mL
COCCOCCOc1cc(N)ccc1N [Compound N5]; 78 to 100 mg/mL

We now examine a further compound.
Prompt: Respond only with solubility at 24 h recorded for COC(COc1cc(N)ccc1N)OC [Compound N1]
Completion: 78 to 100 mg/mL
